Tested on: SN12C renal
TEST DETAILS: NCI tumour cell line growth inhibition, 48 h
Would you kindly list TGI for each of these compounds?

The following compounds have reported results that may help.
{"COMPOUND": "COC(=O)[C@@H](O)[C@]1(C(=O)OC)C2O[C@@H](OC)[C@@H]1CCCCCC[C@H]2O", "METRIC NAME": "TGI", "RESULT": "> 100 µM"}
{"COMPOUND": "N#Cc1cccc(C(=O)Nc2cccc(NC(=O)c3cccc(C#N)c3)c2)c1", "METRIC NAME": "TGI", "RESULT": "> 100 µM"}

Need TGI for each of these compounds.
1. CCOC(=O)NC(C(=O)OCC)C(F)(F)F (stereo not given)
2. CCOC(=O)C1=C(NNC(=O)Cc2ccccc2)CSC1=Nc1ccccc1
3. O=C1c2ccc3c4c5ccc(c24)C(=O)N1CCCOCCCCOCCCNCc1ccc(cc1)CNCCCOCCCCOCCCN(C3=O)C5=O
4. C=C1CCC2CC1[C@@H](C(=O)c1c[nH]c3ccccc13)NC2(C)C (stereo not given in full)

Ans:
> 100 µM
> 100 µM
1.53 µM
> 37.5 µM

For every record below, what is its TGI?
1. O=C(c1ccccc1)[C@H]1Nc2ccc(Cl)cc2[C@H]2OCCC[C@@H]12
2. COCC1N=C(c2cc(OC)c(OC)c(OC)c2-c2cc3c(cc2C2OCCCO2)OCO3)O[C@H]1c1ccccc1 (stereo not given in full)
3. COC(=O)C1=C(C(=O)OC)C2C(C)=CC(C)=CN2C(C#N)=C(SC)S1 (stereo not given)
4. N=c1c2c(-c3ccccc3)c(-c3ccccc3)n(Cc3ccccc3)c2ncn1CCCO
5. COc1ccc(N(C)Sc2ccccc2)cc1
6. C=C(C(=O)O)C1CCC(CC/C=C(\C)CC/C=C(\C)CCC=C(C)C)CO1 (stereo not given)
7. CCN(CCCN(CC)C(=O)Nc1ccccc1)C(=O)Nc1ccccc1
8. COc1ccc(C2C(=O)C(Cl)N2Nc2nc(C)cc(=O)[nH]2)cc1OC (stereo not given)

Ans:
1. 37.5 µM
2. > 100 µM
3. 52.6 µM
4. 19.6 µM
5. 75.3 µM
6. 34.3 µM
7. > 100 µM
8. 94.2 µM

Batch request: TGI per item, same order as input.
1. CC(=O)OC1COC(n2nc(/C=C/c3ccc(Cl)cc3)c(=O)n(/N=C/c3ccccc3)c2=S)C(OC(C)=O)C1OC(C)=O (stereo not given)
2. Cn1c(=O)c(Oc2ccc(F)cc2F)cc2cnc(NC(CO)CO)nc21
3. C/C(=C\c1ccn(-c2ccc(N)c(F)c2)n1)[C@@H]1C[C@@H]2O[C@]2(C)CCC[C@H](C)[C@H](O)[C@@H](C)C(=O)C(C)(C)[C@@H](O)CC(=O)O1
4. COc1ccc(C(=O)c2sc(Nc3ccccc3)nc2N)cc1
5. Cc1cnc(/N=c2\sc(C)cn2-c2ncc(C)s2)s1
6. CC(CN1CCN(C)CC1)CN1c2ccccc2Sc2ccc(C(F)(F)F)cc21 (stereo not given)
7. OCC1OC(Oc2cc(O)cc(/C=C/c3ccc(O)cc3)c2)C(O)C(O)C1O (stereo not given)

Ans:
["> 100 µM", "> 25 µM", "> 50 µM", "> 100 µM", "> 100 µM", "14.5 µM", "> 100 µM"]
